The reported numbers originate from patent US12448388B2.

Tested on: HCT116 MTAP-deleted cell lines
Assay: Cell viability assay (CellTiter-Glo, 7 days), HCT116 MTAP-deleted
Format: cell-based
Conditions: Homo sapiens, HCT-116; cell viability, HCT116 MTAP-deleted; class symbols; read-out: CC50
Observation type: CC50

- Molecule: "CC1(N(Cc2ccc(C(F)(F)F)cc2F)C(=O)c2ccc3nc(N)c4cncn4c3c2)COC1"
  CC50: "100 to 1000 nM"

Now, please, on to the next molecule.
Complete the entry with CC50 for CC(=O)N(C)N(Cc1ccc(C(F)(F)F)cc1Cl)C(=O)c1ccc2nc(N)c3cncn3c2c1
< 100 nM

###

Test system: Symmetric Di-methyl Arginine (SDMA) signal (PRMT5 inhibition) in HCT116 MTAP-deleted cells
Assay: Symmetric di-methyl arginine image-based high content screen assay (SDMA assay), HCT116 MTAP-deleted
Assay type: cell-based
Details: Homo sapiens, HCT-116, HCT116 MTAP-deleted, class symbols
pEC50: −log10 of the molar value.
Observation type: pEC50

- Molecule: "Nc1nc2cc(F)c(C(=O)N3CCC4(CCCc5ccccc54)C3)cc2n2cncc12 (stereo not drawn) [Ff-669]"
  Study target: "Symmetric Di-methyl Arginine (SDMA) signal (PRMT5 inhibition) in HCT116 MTAP-deleted cells"
  pEC50: "8.30 to 9.00"

Look up Symmetric Di-methyl Arginine (SDMA) signal (PRMT5 inhibition) in HCT116 MTAP-deleted cells data: pEC50 of CN(C(=O)c1cc2c(cc1F)nc(N)c1cncn12)[C@@H]1COc2cc(-n3cc(C(F)(F)F)cn3)ccc21 [Ff-545] , then report it.
8.30 to 9.00

Report the value of pEC50 obtained on Symmetric Di-methyl Arginine (SDMA) signal (PRMT5 inhibition) in HCT116 MTAP-deleted cells for Nc1nc2cc(Cl)c(C(=O)N3CCOC[C@@H]3c3ccc(C(F)(F)F)cc3)cc2n2cncc12 [Ff-289] .
≥ 9.00

Retrieve pEC50 on Symmetric Di-methyl Arginine (SDMA) signal (PRMT5 inhibition) in HCT116 MTAP-deleted cells; query Cc1nc(C)n2c1c(N)nc1ccc(C(=O)N(C)[C@@H]3COc4cc(C(F)(F)F)ccc43)cc12 [Fg-18]
8.30 to 9.00

Look up Symmetric Di-methyl Arginine (SDMA) signal (PRMT5 inhibition) in HCT116 MTAP-deleted cells data: pEC50 of Nc1nc2cnc(C(=O)N3CCC[C@@H]4Oc5cc(C(F)(F)F)ccc5[C@@H]43)cc2n2cnc(F)c12 (single isomer, unassigned) [Ff-626] , then report it.
8.30 to 9.00

Provide the reported pEC50 (system: Symmetric Di-methyl Arginine (SDMA) signal (PRMT5 inhibition) in HCT116 MTAP-deleted cells) for CC(=O)N(C)N(Cc1ccc(OC(F)F)cc1F)C(=O)c1ccc2nc(N)c3cnc(C)n3c2c1 [Fc-2]
8.30 to 9.00
